Tested target: WT HIV-1 protease (Human immunodeficiency virus type 1 group M subtype B (isolate HXB2) (HIV-1))
Assay method text: Assay for inhibition of microbial expressed HIV protease (Procedure A, peptide substrate, HPLC fluorescence detection)
Protocol conditions: WT HIV-1 protease 10 pM, substrate 400 micromolar, pH 5.5, 30 min preincubation, 1 hour at 30° C.; read-out: Enzyme inhibition IC50
Exercise: for every item that follows, state its recorded pIC50.
Convention used: pIC50 is expressed as -log10 of the molar concentration.

Req: Indicate the recorded pIC50 value for this compound: CC(C)CN(C(CO)c1ccc(CNC(=O)C(NC(=O)c2ccccc2)C(c2ccccc2)c2ccccc2)s1)S(=O)(=O)c1ccc2ncsc2c1 (stereo not shown)
Resp: 7.28

Req: Provide measured pIC50 value, entry: COC(=O)N[C@H](C(=O)N[C@H](c1ccc([C@@H](CO)N(CCC(C)(C)C)S(=O)(=O)c2ccc(-c3ccn(C)n3)cc2)s1)C(F)(F)F)C(c1ccccc1)c1ccccc1
Resp: 7.18

Req: Recall and state the measured pIC50 for COC(=O)N[C@H](C(=O)N[C@H](c1ccc([C@@H](CO)N(C(C)C)S(=O)(=O)c2ccc(C(N)=O)cc2)s1)C(F)(F)F)C(c1ccccc1)c1ccccc1 .
Resp: 7.50

Req: For the compound CCC(NC(=O)[C@@H](NC(=O)OC)C(c1ccccc1)c1ccccc1)c1ccc(C(CO)N(CCC(C)C)S(=O)(=O)c2ccc(CO)cc2)s1 (stereo partly shown) , give its measured pIC50 value.
Resp: 9.20

Req: Item COC(=O)N[C@H](C(=O)N[C@H](c1ccc([C@@H](CO)N(CCC(C)(C)C)S(=O)(=O)c2cc3ccccc3s2)s1)C(F)(F)F)C(c1ccccc1)c1ccccc1 : provide pIC50
Resp: 8.16

Req: Give a short answer stating reported pIC50 for COC(=O)N[C@H](C(=O)NCc1ccc(C(CO)N(Cc2cccnc2OC)S(=O)(=O)c2ccc3scnc3c2)s1)C(c1ccccc1)c1ccccc1 (stereo partly shown) .
Resp: 7.51

Req: Report pIC50, nothing else, for this compound: COC(=O)N[C@H](C(=O)NCc1ncc(C(CO)N(CCC(C)C)S(=O)(=O)c2ccccc2)s1)C(c1ccccc1)c1ccccc1 (stereo partly shown)
Resp: 7.92

Req: Supply pIC50 value. Item: COC(=O)N[C@H](C(=O)N[C@H](c1ccc([C@@H](CO)N(CCC(C)(C)C)S(=O)(=O)c2ccc(-n3cnnn3)cc2)s1)C(F)(F)F)C(c1ccccc1)c1ccccc1
Resp: 7.71

Req: Supply reported pIC50 belonging to this compound: COC(=O)N[C@H](C(=O)NCc1ccc([C@@H](CO)N(CC(C)C)S(=O)(=O)c2ccc(N)cc2)s1)C(c1ccccc1)c1ccccc1
Resp: 8.59

Req: Let me know recorded pIC50 for COC(=O)N[C@H](C(=O)N[C@H](c1ccc([C@@H](CO)N(CC(C)C)S(=O)(=O)c2ccc(N)cc2)s1)C1CC1)C(c1ccccc1)c1ccccc1 , thanks.
Resp: 8.40

Req: Let me know recorded pIC50 for COC(=O)N[C@H](C(=O)N[C@H](c1ccc([C@@H](CO)N(CCC(C)(C)C)S(=O)(=O)c2ccc3ncnn3c2)s1)C(F)(F)F)C(c1ccccc1)c1ccccc1 , thanks.
Resp: 8.61

Req: Tell us which pIC50 value is on record for COC(=O)N[C@H](C(=O)N[C@H](c1ccc([C@@H](CO)N(CCC(F)(F)F)S(=O)(=O)c2ccc(N)cc2)s1)C(F)(F)F)C(c1ccccc1)c1ccccc1
Resp: 9.48

Req: Give a short answer stating reported pIC50 for COC(=O)N[C@H](C(=O)NCc1ccc([C@@H](CO)N(CC2CC(F)(F)C2)S(=O)(=O)c2ccc3c(c2)COCC3)s1)C(c1ccccc1)c1ccccc1 .
Resp: 8.62

Req: Kindly indicate its recorded pIC50. Item: COC(=O)N[C@H](C(=O)N[C@H](c1ccc([C@@H](CO)N(CCC(C)(C)C)S(=O)(=O)c2ccc(-n3ncnn3)cc2)s1)C(F)(F)F)C(c1ccccc1)c1ccccc1
Resp: 7.98

Req: Complete the entry with pIC50 for COC(=O)N[C@H](C(=O)N[C@H](c1ccc([C@@H](CO)N(CCC(C)(C)C)S(=O)(=O)c2ccc3[nH]ccc3c2)s1)C(F)(F)F)C(c1ccccc1)c1ccccc1
Resp: 8.21

Req: Provide only the value of recorded pIC50 for COC(=O)N[C@H](C(=O)NCc1ccc([C@@H](CO)N(CC2CC(F)(F)C2)S(=O)(=O)c2cccc(C(=O)c3ccccn3)c2)s1)C(c1ccccc1)c1ccccc1
Resp: 6.76

Req: Specify measured pIC50 for COC(=O)N[C@H](C(=O)N[C@H](c1ccc([C@@H](CO)N(C(C)C)S(=O)(=O)c2ccc(N)cc2)s1)C(F)(F)F)C(c1ccccc1)c1ccccc1 .
Resp: 7.64

Req: Give the reported value of pIC50 for this record: COC(=O)N[C@H](C(=O)N[C@H](c1ccc([C@@H](CO)N(CCC(C)(C)C)S(=O)(=O)c2ccc(N)cn2)s1)C(F)(F)F)C(c1ccccc1)c1ccccc1
Resp: 8.88

Req: State its pIC50 for this compound: COC(=O)N[C@H](C(=O)N[C@H](c1ccc([C@@H](CO)N(CCC(F)(F)F)S(=O)(=O)c2ccc3ncsc3c2)s1)C(F)(F)F)C(c1ccccc1)c1ccccc1
Resp: 9.07

Req: Output pIC50 of COC(=O)N[C@H](C(=O)N[C@H](c1ccc([C@@H](CO)N(CCC2CC2)S(=O)(=O)c2ccc(N)cc2)s1)C(F)(F)F)C(c1ccccc1)c1ccccc1
Resp: 9.47

Req: Answer with the recorded pIC50 for the compound listed here: COC(=O)N[C@H](C(=O)NCc1ccc([C@@H](CO)N(CC(C)C)S(=O)(=O)c2cccc(CC(C)(C)O)c2)s1)C(c1ccccc1)c1ccccc1
Resp: 8.39

Req: // fetch pIC50 given entry COC(=O)N[C@H](C(=O)N[C@H](c1ccc([C@@H](CO)N(CCC(C)(C)C)S(=O)(=O)c2cc(F)c(CO)c(F)c2)s1)C(F)(F)F)C(c1ccccc1)c1ccccc1
Resp: 8.70

Data provenance is patent US9133157B2.
